target: undecaprenyl diphosphate synthase derived from Staphylococcus aureus (Staphylococcus aureus, UniProt P60477); construct: made in house; host or cells: E. coli BL21 (DE3), T7 promoter, IPTG induction; unpurified cell-free extract (100,000 x g supernatant); assay: Inhibitory effect on undecaprenyl diphosphate synthase (phosphate release, Amplex Red fluorescence); assay type: biochemical; settings: cell-free extract of transformed E. Coli as enzyme source, 37° C., 20 minutes; read-out: concentration at which the undecaprenyl diphosphate synthase activity was inhibited to 50% (IC50)
Sequence (P60477 whole entry): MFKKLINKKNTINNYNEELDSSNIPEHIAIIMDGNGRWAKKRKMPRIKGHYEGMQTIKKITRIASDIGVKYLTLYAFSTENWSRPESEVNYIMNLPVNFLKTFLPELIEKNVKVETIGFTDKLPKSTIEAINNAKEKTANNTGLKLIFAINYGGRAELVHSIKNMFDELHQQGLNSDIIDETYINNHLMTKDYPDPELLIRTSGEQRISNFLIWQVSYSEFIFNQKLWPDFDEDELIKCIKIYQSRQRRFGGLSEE
MEASURED PROPERTY: IC50 (µM)

>>> value("COc1cc(O)c2c(O)c3c(c4c2c1C1(C4)C(C)=CCCC1(C)C)C(O)C1(O)CC(O)=C(C(N)=O)C(=O)C1(O)C3=O (stereo not shown) [FKI-3368-1]")
4
